// provenance: PubChem BioAssay (NCI)

Tested on: IGROV1 ovarian
Test: NCI tumour cell line growth inhibition, 48 h
Each item that follows carries a reported TGI.

Below: 2 compounds and their reported TGI.
compound	assayedSystem	valueType	result
Clc1ccc(-c2cc(-c3nc4ccccc4[nH]3)no2)cc1	IGROV1 ovarian	TGI	62.1 µM
COc1ccc(N2C(=O)CC(c3c[nH]c4ccccc34)C2=O)cc1 (configuration not stated)	IGROV1 ovarian	TGI	> 100 µM

Enquiry: For the compound Clc1ccc(CCn2cncn2)c(Cl)c1 , what TGI is on record?
Return: > 100 µM

Enquiry: For the compound COC(=O)c1cc(/C=C2\Cc3cc4c(cc3C2=O)CCC4)cc2c1CCC2 , what TGI is on record?
Return: > 100 µM

Enquiry: For the compound Nc1nn(C(=O)Nc2ccc(Cc3ccccc3)cc2)c2ccccc12 , what TGI is on record?
Return: 48.8 µM

Enquiry: For the compound C[C@H]1[C@H](C)CC[C@]2(C(=O)O)CC[C@]3(C)C(=CC[C@@H]4[C@@]5(C)CC[C@H](OC(=O)/C=C\c6ccc(O)cc6)C(C)(C)[C@@H]5CC[C@]43C)[C@H]12 , what TGI is on record?
Return: > 100 µM

Enquiry: For the compound CC1(c2nc3cc(Cl)c(Cl)cc3[nH]2)CCC(C(=O)O)C(C)(C)O1 (configuration not stated) , what TGI is on record?
Return: > 100 µM
